- Tested Target: UniProt P51684
- Sequence (P51684 whole entry): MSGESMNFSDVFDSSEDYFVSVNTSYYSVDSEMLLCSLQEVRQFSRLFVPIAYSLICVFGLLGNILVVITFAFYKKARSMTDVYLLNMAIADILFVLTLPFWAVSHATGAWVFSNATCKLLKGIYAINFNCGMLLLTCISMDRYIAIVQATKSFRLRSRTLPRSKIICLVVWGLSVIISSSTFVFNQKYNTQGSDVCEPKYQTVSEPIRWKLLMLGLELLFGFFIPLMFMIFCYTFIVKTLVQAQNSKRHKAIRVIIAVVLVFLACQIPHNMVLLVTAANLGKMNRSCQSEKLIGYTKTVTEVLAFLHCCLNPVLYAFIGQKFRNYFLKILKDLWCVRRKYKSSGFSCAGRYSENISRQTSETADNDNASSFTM
- Measurement Description: FLIPR assay: inhibition of CCL20-induced calcium signal in HEK-293 cells expressing human CCR6
- Condition Set: engineered HEK-293 cells expressing human CCR6; agonist CCL20 10 nM; 30 min preincubation; Fluo-8-AM; mean values if determined several times
pIC50: −log10 of the molar value.
pIC50 values, listed per item

Compound	Tested Target	pIC50
CNC(C)(C)c1nc(-c2cncc([C@@](O)(c3ccc(C(C)C)cc3)C3(C)CN(C)C3)c2)nn1C1CC1 [Example 11]	UniProt P51684	6.28
CN1CC(C)([C@](O)(c2ccc(C3CC3)cc2)c2cncc(-c3nc(C4CCOCC4)n(C4CC4)n3)c2)C1 [Example 25]	UniProt P51684	6.79
CC(C)c1ccc([C@](O)(c2cncc(-c3nc([C@@](C)(O)C(F)(F)F)n(C4CC4)n3)c2)C2(C)CN(C)C2)cc1 [Example 9]	UniProt P51684	7.65
CC(C)c1ccc([C@](O)(c2cncc(-c3nc(C4CCN(C(=O)CO)CC4)n(C(C)C)n3)c2)C2(C)CN(C)C2)cc1 [Example 44]	UniProt P51684	6.70
CCc1ccc([C@](O)(c2cncc(-c3nc(C4CCOCC4)n(C4CC4)n3)c2)C2(C)CN(C)C2)cc1 [Example 6]	UniProt P51684	6.91
CC(C)c1ccc([C@](O)(c2cncc(-c3nc(C4CCOCC4)n(C4CC4)n3)c2)C2(C)CN(C(C)C)C2)cc1 [Example 34]	UniProt P51684	7.20
CN1CC(C)([C@](O)(c2ccc(Br)cc2)c2cncc(-c3nc(C4CCOCC4)n(C4CC4)n3)c2)C1 [Example 1]	UniProt P51684	5.98
CC(C)c1ccc([C@](O)(c2cncc(-c3nc(C4CCOCC4)n(C(C)C)n3)c2)C2(C)CN(C)C2)cc1 [Example 19]	UniProt P51684	7.02
CC(C)c1ccc([C@](O)(c2cncc(-c3nc(CC4(O)CCC4)n(C4CC4)n3)c2)C2(C)CN(C)C2)cc1 [Example 12]	UniProt P51684	6.94
CC(C)c1ccc([C@](O)(c2cncc(-c3nc(C(C)(C)O)n(C(C)C)n3)c2)C2(C)CN(C)C2)cc1 [Example 27]	UniProt P51684	7.23
CC(C)c1ccc([C@](O)(c2cncc(-c3nc(C4CCOCC4)n(C4CCCC4)n3)c2)C2(C)CN(C)C2)cc1 [Example 20]	UniProt P51684	7.43
CC(C)c1ccc([C@](O)(c2cncc(-c3nc(C4CCOCC4)n(C(C)(C)C)n3)c2)C2(C)CN(C)C2)cc1 [Example 21]	UniProt P51684	7.40
CC(=O)N[C@H]1CC[C@H](c2nc(-c3cncc([C@@](O)(c4ccc(C(C)C)cc4)C4(C)CN(C)C4)c3)nn2C(C)C)CC1 [Example 43]	UniProt P51684	6.94
CC(=O)N1CCC(c2nc(-c3cncc([C@@](O)(c4ccc(C(C)C)cc4)C4(C)CN(C)C4)c3)nn2C(C)C)CC1 [Example 33]	UniProt P51684	6.74
